Assay: In vivo toxicity in Drosophila melanogaster strain Oregon R assessed as survival rate at 0.1 to 1 mg/ml measured upto 72 hrs relative to control
Format: organism-based
Details: 72 h, dose 0.1-1 mg/ml
Measure Name: Activity

> print(dat)
                           structure.smiles  reported.result
1  CCCCCCCCn1c2c([n+](CCCC)c1C)C(=O)c1ccccc1C2=O.[Br-]        Non-Toxic
2  CCCCCCCCn1c2c([n+](Cc3ccco3)c1C)C(=O)c1ccccc1C2=O.[Br-]            Toxic
3  CCCCCCCCCn1c2c([n+](Cc3ccccc3)c1C)C(=O)c1ccccc1C2=O.[Br-]            Toxic
4  CCCCCCCCCCn1c2c([n+](Cc3ccccc3)c1C)C(=O)c1ccccc1C2=O.[Br-]            Toxic
5  CCCCCCCn1c2c([n+](Cc3ccco3)c1C)C(=O)c1ccccc1C2=O.[Br-]        Non-Toxic
6  CCCCCCCn1c2c([n+](CCCCCCC)c1C)C(=O)c1ccccc1C2=O.[Br-]        Non-Toxic

###

Tested on: Staphylococcus aureus
Assay: Antibacterial agents against methicillin-sensitive Staphylococcus aureus SA1 assessed as absence of growth measured after 18 hrs by micro-dilution method
Format: functional
Let's look at some molecules and their measured MIC.
Measure Name: MIC (µg/mL)

> print(dat)
                           structure.smiles            test.system  reported.result
1  CCCCCCCCCCn1c2c([n+](Cc3ccccc3)c1C)C(=O)c1ccccc1C2=O.[Br-]  Staphylococcus aureus             0.39
2  CCCCCCCn1c2c([n+](CCCCCCC)c1C)C(=O)c1ccccc1C2=O.[Br-]  Staphylococcus aureus             0.39
3  CCCCCCCn1c2c([n+](Cc3ccco3)c1C)C(=O)c1ccccc1C2=O.[Br-]  Staphylococcus aureus             0.78
4  Cc1n(CC2CC2)c2c([n+]1Cc1ccccc1)C(=O)c1ccccc1C2=O.[Br-]  Staphylococcus aureus             0.78
5  CCCCCn1c2c([n+](Cc3ccccc3)c1C)C(=O)c1ccccc1C2=O.[Br-]  Staphylococcus aureus             3.13
6  CCCCCCn1c2c([n+](Cc3ccco3)c1C)C(=O)c1ccccc1C2=O.[Br-]  Staphylococcus aureus             0.78
7  CCCCCCn1c2c([n+](CCCCCC)c1C)C(=O)c1ccccc1C2=O.[Br-]  Staphylococcus aureus             0.78
8  CCCCCC[n+]1c2c(n(CCOC)c1C)C(=O)c1ccccc1C2=O.[Br-]  Staphylococcus aureus             6.25
9  CCCCCCCCn1c2c([n+](Cc3ccccc3)c1C)C(=O)c1ccccc1C2=O.[Br-]  Staphylococcus aureus             0.19

###

Listed here: items and their measured MIC.
Tested on: Staphylococcus aureus
Assay: Antibacterial agents against methicillin-sensitive Staphylococcus aureus SA1 assessed as absence of growth measured after 18 hrs by micro-dilution method
Format: functional
Measure Name: MIC (µg/mL)

Structure Smiles	Measure Name	Reported Result
CCCCCCCCn1c2c([n+](CCCC)c1C)C(=O)c1ccccc1C2=O.[Br-]	MIC	0.39
Cc1n(CC2CCCCC2)c2c([n+]1Cc1ccccc1)C(=O)c1ccccc1C2=O.[Br-]	MIC	1.56
CN[C@H](CC(C)C)C(=O)N[C@H]1C(=O)N[C@@H](CC(N)=O)C(=O)N[C@H]2C(=O)N[C@H]3C(=O)N[C@H](C(=O)N[C@H](C(=O)O)c4cc(O)cc(O)c4-c4cc3ccc4O)[C@H](O)c3ccc(c(Cl)c3)Oc3cc2cc(c3O[C@@H]2O[C@H](CO)[C@@H](O)[C@H](O)[C@H]2O[C@H]2C[C@](C)(N)[C@H](O)[C@H](C)O2)Oc2ccc(cc2Cl)[C@H]1O	MIC	1.56
CCCCCCCCCn1c2c([n+](Cc3ccccc3)c1C)C(=O)c1ccccc1C2=O.[Br-]	MIC	0.39
CCCCCCCCn1c2c([n+](Cc3ccco3)c1C)C(=O)c1ccccc1C2=O.[Br-]	MIC	0.39
Cc1n(C2CCCCC2)c2c([n+]1Cc1ccccc1)C(=O)c1ccccc1C2=O.[Br-]	MIC	0.78
CCCCCCCn1c2c([n+](Cc3ccccc3)c1C)C(=O)c1ccccc1C2=O.[Br-]	MIC	0.39
CCCCCCCn1c2c([n+](CCCC)c1C)C(=O)c1ccccc1C2=O.[Br-]	MIC	0.78
CCCCCCn1c2c([n+](Cc3ccccc3)c1C)C(=O)c1ccccc1C2=O.[Br-]	MIC	0.78

###

Assay: Therapeutic index, ratio of IC50 for HEK293 cells to MIC for […] activity against methicillin-resistant Staphylococcus aureus SA3
Type: toxicity
Details: human, read-out: TI
Measure Name: selectivity ratio

> print(dat)
                           structure.smiles       measure.name  reported.result
1  CCCCCCCCn1c2c([n+](Cc3ccccc3)c1C)C(=O)c1ccccc1C2=O.[Br-]  selectivity ratio              0.8

###

Reported values of MIC for individual entries
Tested on: Bacillus subtilis
Assay: Antibacterial agents against Bacillus subtilis PS380 assessed as absence of growth measured after 18 hrs by micro-dilution method
Assay type: functional
Measure Name: MIC (mg/L)

Molecule	Measure Name	Reported Result
CCCCCCCn1c2c([n+](Cc3ccco3)c1C)C(=O)c1ccccc1C2=O.[Br-]	MIC	0.78
CN[C@H](CC(C)C)C(=O)N[C@H]1C(=O)N[C@@H](CC(N)=O)C(=O)N[C@H]2C(=O)N[C@H]3C(=O)N[C@H](C(=O)N[C@H](C(=O)O)c4cc(O)cc(O)c4-c4cc3ccc4O)[C@H](O)c3ccc(c(Cl)c3)Oc3cc2cc(c3O[C@@H]2O[C@H](CO)[C@@H](O)[C@H](O)[C@H]2O[C@H]2C[C@](C)(N)[C@H](O)[C@H](C)O2)Oc2ccc(cc2Cl)[C@H]1O [VANCOMYCIN]	MIC	0.19
CCCCCCCCCCn1c2c([n+](Cc3ccccc3)c1C)C(=O)c1ccccc1C2=O.[Br-]	MIC	1.56
CCCCCCCCn1c2c([n+](Cc3ccccc3)c1C)C(=O)c1ccccc1C2=O.[Br-]	MIC	0.39
CCCCCn1c2c([n+](Cc3ccccc3)c1C)C(=O)c1ccccc1C2=O.[Br-]	MIC	6.25
CCCCCCCn1c2c([n+](CCCC)c1C)C(=O)c1ccccc1C2=O.[Br-]	MIC	0.39
CCCCCCCn1c2c([n+](Cc3ccccc3)c1C)C(=O)c1ccccc1C2=O.[Br-]	MIC	0.78
CCCCCCn1c2c([n+](Cc3ccccc3)c1C)C(=O)c1ccccc1C2=O.[Br-]	MIC	0.78
CCCCCCn1c2c([n+](Cc3ccco3)c1C)C(=O)c1ccccc1C2=O.[Br-]	MIC	3.13
CCCCCC[n+]1c2c(n(CCOC)c1C)C(=O)c1ccccc1C2=O.[Br-]	MIC	6.25
CCCCCCCCCn1c2c([n+](Cc3ccccc3)c1C)C(=O)c1ccccc1C2=O.[Br-]	MIC	1.56
Cc1n(CC2CCCCC2)c2c([n+]1Cc1ccccc1)C(=O)c1ccccc1C2=O.[Br-]	MIC	0.78
CCCCCCCCn1c2c([n+](CCCC)c1C)C(=O)c1ccccc1C2=O.[Br-]	MIC	0.39

###

Listing: survival at 72 h of selected molecules
Assay: In vivo toxicity in Drosophila melanogaster strain Oregon R assessed as survival rate at 0.1 to 1 mg/ml measured upto 72 hrs relative to control
Assay type: organism-based
Conditions: Oregon R, at 0.1 to 1 mg/mL, dose 0.1-1 mg/ml
Measure Name: survival at 72 h (%)

> print(dat)
                           structure.smiles  units.symbol  reported.result
1  CCCCCCCCn1c2c([n+](Cc3ccccc3)c1C)C(=O)c1ccccc1C2=O.[Br-]             %               75
2  CCCCCCCn1c2c([n+](Cc3ccccc3)c1C)C(=O)c1ccccc1C2=O.[Br-]             %               75

###

Assay: Metabolic stability in human liver microsomes assessed as intrinsic clearance at 2 uM preincubated for 5 mins followed by NADPH addition and measured for 35 mins by LC/MS analysis
Format: ADME, Microsome
Settings: read-out: CLH
Measure Name: CLint scaled at 2 µM (mL/min/kg)

> print(dat)
                           structure.smiles  units.symbol  reported.result
1  CCCCCCCn1c2c([n+](Cc3ccccc3)c1C)C(=O)c1ccccc1C2=O.[Br-]     mL/min/kg              101
2  CCCCCCCCCCn1c2c([n+](Cc3ccccc3)c1C)C(=O)c1ccccc1C2=O.[Br-]     mL/min/kg              103
3  CCCCCCCCn1c2c([n+](Cc3ccco3)c1C)C(=O)c1ccccc1C2=O.[Br-]     mL/min/kg               95
4  CCCCCCCCCn1c2c([n+](Cc3ccccc3)c1C)C(=O)c1ccccc1C2=O.[Br-]     mL/min/kg               26
5  CCCCCC[n+]1c2c(n(CCOC)c1C)C(=O)c1ccccc1C2=O.[Br-]     mL/min/kg               37
6  CCCCCCCCn1c2c([n+](CCCC)c1C)C(=O)c1ccccc1C2=O.[Br-]     mL/min/kg              125
7  CCCCCCCn1c2c([n+](Cc3ccco3)c1C)C(=O)c1ccccc1C2=O.[Br-]     mL/min/kg               24
8  CCCCCCCCn1c2c([n+](Cc3ccccc3)c1C)C(=O)c1ccccc1C2=O.[Br-]     mL/min/kg               39
9  CCCCCCCn1c2c([n+](CCCCCCC)c1C)C(=O)c1ccccc1C2=O.[Br-]     mL/min/kg               77
